Items are presented alongside their recorded IC50.
# Assay Text: Cytotoxicity against mouse RAW264.7 cells assessed as cell growth inhibition by CCK-8 colorimetric assay
# Assay type: toxicity, cell-based
The figure you give is taken to be in µM; do not add the unit.

>  <Chem Smiles>
COc1cc(OC)c2c(=O)cc(C(=O)Nc3ccc(C)c(Cl)c3)oc2c1

>  <Quantity Measured>
IC50

>  <Experimental Result>
48

$$$$
>  <Chem Smiles>
O=C(Nc1ccc(Br)cc1)c1cc(=O)c2ccccc2o1

>  <Quantity Measured>
IC50

>  <Experimental Result>
24.3

$$$$
>  <Chem Smiles>
Cc1ccc2oc(C(=O)Nc3cc(Cl)ccc3C)cc(=O)c2c1

>  <Quantity Measured>
IC50

>  <Experimental Result>
38.4

$$$$
>  <Chem Smiles>
O=C(Nc1ccc(C(F)(F)F)cc1)c1cc(=O)c2ccc(Br)cc2o1

>  <Quantity Measured>
IC50

>  <Experimental Result>
324

$$$$

Entry under test: `COc1cccc2oc(C(=O)Nc3cc(Cl)ccc3C)cc(=O)c12` . Its IC50 was 48

Entry under test: `COc1ccc2c(=O)cc(C(=O)Nc3ccccc3C)oc2c1` . Its IC50 was 813
